Below: a set of entries, each annotated with reported MIC90.
- System: Citrobacter freundii
- Test description: Antibacterial activity against Citrobacter freundii
- Format: functional
Express the result in µg/mL but write the number alone.

Would you please look over these solved cases?
Cc1c(N2CC[C@@H]([C@H](C)N)C2)c(F)cc2c(=O)n(N)c(=O)n(C3CC3)c12    16
C[C@H]1COc2c(N3CCN(C)CC3)c(F)cc3c(=O)c(C(=O)O)cn1c23.C[C@H]1COc2c(N3CCN(C)CC3)c(F)cc3c(=O)c(C(=O)O)cn1c23.O [LEVOFLOXACIN]    16

Now let's try a different one.
The value of MIC90 measured for the compound COc1c(N2CCNC(C)C2)c(F)cc2c(=O)c(C(=O)O)cn(C3CC3)c12 (stereo not given) [GATIFLOXACIN] turned out to be 16

----------
- Test system: Salmonella enteritidis
- Test description: Antibacterial activity against Salmonella enterica serovar Enteritidis
- Assay type: functional, Salmonella enterica subsp. enterica serovar Enteritidis
Assay readout: MIC50

Would you please look over these solved cases?
COc1c(N2CCNC(C)C2)c(F)cc2c(=O)c(C(=O)O)cn(C3CC3)c12 (stereo not given)    0.03 µg/mL
C[C@H]1NCc2cc(-c3ccc4c(=O)c(C(=O)O)cn(C5CC5)c4c3OC(F)F)ccc21    0.03 µg/mL
Cc1c(N2CC[C@@H]([C@H](C)N)C2)c(F)cc2c(=O)n(N)c(=O)n(C3CC3)c12    0.5 µg/mL
Cc1c(N2CC[C@@H]([C@H](C)N)C2)c(F)cc2c(=O)[nH]c(=O)n(C3CC3)c12    2 µg/mL

Now let's try a different one.
The value of MIC50 measured for the molecule C[C@H]1COc2c(N3CCN(C)CC3)c(F)cc3c(=O)c(C(=O)O)cn1c23.C[C@H]1COc2c(N3CCN(C)CC3)c(F)cc3c(=O)c(C(=O)O)cn1c23.O turned out to be 0.03 µg/mL

----------
Below: a set of entries, each annotated with reported MIC50.
- System: Enterococcus faecium
- Test description: Antibacterial activity against Enterococcus faecium
- Format: functional
Express the result in µg/mL but write the number alone.

Would you please look over these solved cases?
Cc1c(N2CC[C@@H]([C@H](C)N)C2)c(F)cc2c(=O)n(N)c(=O)n(C3CC3)c12    1
Cc1c(N2CC[C@@H]([C@H](C)N)C2)c(F)cc2c(=O)[nH]c(=O)n(C3CC3)c12    1
C[C@H]1NCc2cc(-c3ccc4c(=O)c(C(=O)O)cn(C5CC5)c4c3OC(F)F)ccc21    8
COc1c(N2CCNC(C)C2)c(F)cc2c(=O)c(C(=O)O)cn(C3CC3)c12 (stereo not given)    8

Now let's try a different one.
The value of MIC50 measured for the molecule C[C@H]1COc2c(N3CCN(C)CC3)c(F)cc3c(=O)c(C(=O)O)cn1c23.C[C@H]1COc2c(N3CCN(C)CC3)c(F)cc3c(=O)c(C(=O)O)cn1c23.O turned out to be 32

----------
- Tested on: Streptococcus equinus
- Test description: Antibacterial activity against Streptococcus bovis
- Format: functional
Below: a set of entries, each annotated with reported log10 of MIC50.
Please keep in mind that the values are log10 of MIC50 expressed in µg/mL.

Cc1c(N2CC[C@@H]([C@H](C)N)C2)c(F)cc2c(=O)n(N)c(=O)n(C3CC3)c12    -1.52

The value of log10 of MIC50 measured for the compound COc1c(N2CCNC(C)C2)c(F)cc2c(=O)c(C(=O)O)cn(C3CC3)c12 (stereo not given) turned out to be 0.00

The value of log10 of MIC50 measured for the compound Cc1c(N2CC[C@@H]([C@H](C)N)C2)c(F)cc2c(=O)[nH]c(=O)n(C3CC3)c12 turned out to be -1.22

The value of log10 of MIC50 measured for the compound C[C@H]1NCc2cc(-c3ccc4c(=O)c(C(=O)O)cn(C5CC5)c4c3OC(F)F)ccc21 turned out to be -0.60

The value of log10 of MIC50 measured for the compound C[C@H]1COc2c(N3CCN(C)CC3)c(F)cc3c(=O)c(C(=O)O)cn1c23.C[C@H]1COc2c(N3CCN(C)CC3)c(F)cc3c(=O)c(C(=O)O)cn1c23.O turned out to be 0.30

----------
- System: Staphylococcus aureus
- Test description: Antibacterial activity against oxacillin-resistant Staphylococcus aureus
- Type: functional
Below: a set of entries, each annotated with reported MIC90.
Express the result in µg/mL but write the number alone.

The value of MIC90 measured for the compound COc1c(N2CCNC(C)C2)c(F)cc2c(=O)c(C(=O)O)cn(C3CC3)c12 (stereo not given) turned out to be 8

----------
- System: Staphylococcus warneri
- Test description: Antibacterial activity against Staphylococcus warneri
- Type: functional
Below: a set of entries, each annotated with reported MIC.
Express the result in µg/mL but write the number alone.

The value of MIC measured for the compound Cc1c(N2CC[C@@H]([C@H](C)N)C2)c(F)cc2c(=O)n(N)c(=O)n(C3CC3)c12 turned out to be 0.06

The value of MIC measured for the compound Cc1c(N2CC[C@@H]([C@H](C)N)C2)c(F)cc2c(=O)[nH]c(=O)n(C3CC3)c12 turned out to be 0.125

The value of MIC measured for the compound COc1c(N2CCNC(C)C2)c(F)cc2c(=O)c(C(=O)O)cn(C3CC3)c12 (stereo not given) turned out to be 0.125

The value of MIC measured for the compound C[C@H]1COc2c(N3CCN(C)CC3)c(F)cc3c(=O)c(C(=O)O)cn1c23.C[C@H]1COc2c(N3CCN(C)CC3)c(F)cc3c(=O)c(C(=O)O)cn1c23.O turned out to be 0.125

The value of MIC measured for the compound C[C@H]1NCc2cc(-c3ccc4c(=O)c(C(=O)O)cn(C5CC5)c4c3OC(F)F)ccc21 turned out to be 0.03

----------
- System: Streptococcus pneumoniae
- Test description: Antibacterial activity against penicillin-intermediate resistant Streptococcus pneumoniae
- Format: functional
Assay readout: MIC50 (µg/mL)
Express the result in µg/mL but write the number alone.

Would you please look over these solved cases?
Cc1c(N2CC[C@@H]([C@H](C)N)C2)c(F)cc2c(=O)n(N)c(=O)n(C3CC3)c12    0.03
C[C@H]1COc2c(N3CCN(C)CC3)c(F)cc3c(=O)c(C(=O)O)cn1c23.C[C@H]1COc2c(N3CCN(C)CC3)c(F)cc3c(=O)c(C(=O)O)cn1c23.O    1
C[C@H]1NCc2cc(-c3ccc4c(=O)c(C(=O)O)cn(C5CC5)c4c3OC(F)F)ccc21    0.25

The value of MIC50 measured for the compound Cc1c(N2CC[C@@H]([C@H](C)N)C2)c(F)cc2c(=O)[nH]c(=O)n(C3CC3)c12 turned out to be 0.06

The value of MIC50 measured for the compound COc1c(N2CCNC(C)C2)c(F)cc2c(=O)c(C(=O)O)cn(C3CC3)c12 (stereo not given) turned out to be 0.25

----------
- Tested on: Prevotella buccae
- Test description: Antibacterial activity against Prevotella buccae
- Assay type: functional
- Assay conditions: Segatella buccae
Assay readout: MIC90 (µg/mL)
Express the result in µg/mL but write the number alone.

Cc1c(N2CC[C@@H]([C@H](C)N)C2)c(F)cc2c(=O)n(N)c(=O)n(C3CC3)c12    1
C[C@H]1NCc2cc(-c3ccc4c(=O)c(C(=O)O)cn(C5CC5)c4c3OC(F)F)ccc21    1
COc1c(N2CCNC(C)C2)c(F)cc2c(=O)c(C(=O)O)cn(C3CC3)c12 (stereo not given)    0.5

// molecule C[C@H]1COc2c(N3CCN(C)CC3)c(F)cc3c(=O)c(C(=O)O)cn1c23.C[C@H]1COc2c(N3CCN(C)CC3)c(F)cc3c(=O)c(C(=O)O)cn1c23.O , assay Prevotella buccae, MIC90 value: 2

// molecule Cc1c(N2CC[C@@H]([C@H](C)N)C2)c(F)cc2c(=O)[nH]c(=O)n(C3CC3)c12 , assay Prevotella buccae, MIC90 value: 2

----------
- Tested on: Prevotella bivia
- Test description: Antibacterial activity against Prevotella bivia
- Type: functional
Assay readout: MIC50 (µg/mL)
Express the result in µg/mL but write the number alone.

The value of MIC50 measured for the compound Cc1c(N2CC[C@@H]([C@H](C)N)C2)c(F)cc2c(=O)n(N)c(=O)n(C3CC3)c12 turned out to be 0.25

----------
- Test system: Haemophilus influenzae
- Test description: Antibacterial activity against beta-lactamase positive Haemophilus influenzae
- Type: functional
Below: a set of entries, each annotated with reported MIC50.
Express the result in µg/mL but write the number alone.

Would you please look over these solved cases?
COc1c(N2CCNC(C)C2)c(F)cc2c(=O)c(C(=O)O)cn(C3CC3)c12 (stereo not given)    0.015
Cc1c(N2CC[C@@H]([C@H](C)N)C2)c(F)cc2c(=O)n(N)c(=O)n(C3CC3)c12    0.125
C[C@H]1COc2c(N3CCN(C)CC3)c(F)cc3c(=O)c(C(=O)O)cn1c23.C[C@H]1COc2c(N3CCN(C)CC3)c(F)cc3c(=O)c(C(=O)O)cn1c23.O    0.008
C[C@H]1NCc2cc(-c3ccc4c(=O)c(C(=O)O)cn(C5CC5)c4c3OC(F)F)ccc21    0.015

Now let's try a different one.
The value of MIC50 measured for the compound Cc1c(N2CC[C@@H]([C@H](C)N)C2)c(F)cc2c(=O)[nH]c(=O)n(C3CC3)c12 turned out to be 0.5
